Listing of entries alongside the reported Binding affinity.
Assayed system: acetylcholine receptor (Homo sapiens)
Method description: SPR binding affinity (RU) of optimized 5mer/6mer/7mer peptides, Examples 6-7
Settings: 6mer-1 Top sequence; SPR; peptides tested at 10 μM
Assay metric: Binding affinity (Ru)

>  <Substance>
6mer-1-294 (KKLYRR)

>  <Assay metric>
Binding affinity

>  <Unit tag>
Ru

>  <Quantitative result>
123

$$$$
>  <Substance>
6mer-1-239 (RKVLCR)

>  <Assay metric>
Binding affinity

>  <Unit tag>
Ru

>  <Quantitative result>
136

$$$$
>  <Substance>
6mer-1-358 (KRRYTR)

>  <Assay metric>
Binding affinity

>  <Unit tag>
Ru

>  <Quantitative result>
124

$$$$
>  <Substance>
6mer-1-329 (RKWRQK)

>  <Assay metric>
Binding affinity

>  <Unit tag>
Ru

>  <Quantitative result>
123

$$$$
>  <Substance>
6mer-1-236 (RKLISR)

>  <Assay metric>
Binding affinity

>  <Unit tag>
Ru

>  <Quantitative result>
151

$$$$
>  <Substance>
6mer-1-339 (KKSIQK)

>  <Assay metric>
Binding affinity

>  <Unit tag>
Ru

>  <Quantitative result>
147

$$$$
>  <Substance>
6mer-1-249 (RKGVSR)

>  <Assay metric>
Binding affinity

>  <Unit tag>
Ru

>  <Quantitative result>
142

$$$$
>  <Substance>
6mer-1-324 (RRLQRR)

>  <Assay metric>
Binding affinity

>  <Unit tag>
Ru

>  <Quantitative result>
128

$$$$
>  <Substance>
6mer-1-357 (KRRQTR)

>  <Assay metric>
Binding affinity

>  <Unit tag>
Ru

>  <Quantitative result>
148

$$$$
>  <Substance>
6mer-1-243 (KKWYLR)

>  <Assay metric>
Binding affinity

>  <Unit tag>
Ru

>  <Quantitative result>
136

$$$$
>  <Substance>
6mer-1-390 (RKLQQR)

>  <Assay metric>
Binding affinity

>  <Unit tag>
Ru

>  <Quantitative result>
121

$$$$
>  <Substance>
6mer-1-241 (RRLYYK)

>  <Assay metric>
Binding affinity

>  <Unit tag>
Ru

>  <Quantitative result>
148

$$$$
>  <Substance>
6mer-1-304 (RKLYSR)

>  <Assay metric>
Binding affinity

>  <Unit tag>
Ru

>  <Quantitative result>
121

$$$$
>  <Substance>
6mer-1-395 (KKRQTK)

>  <Assay metric>
Binding affinity

>  <Unit tag>
Ru

>  <Quantitative result>
125

$$$$
>  <Substance>
6mer-1-337 (RKSRRR)

>  <Assay metric>
Binding affinity

>  <Unit tag>
Ru

>  <Quantitative result>
144

$$$$
>  <Substance>
6mer-1-265 (RKSVCR)

>  <Assay metric>
Binding affinity

>  <Unit tag>
Ru

>  <Quantitative result>
145

$$$$

* * *

Assayed system: acetylcholine receptor (Homo sapiens, UniProt P02708)
Sequence (P02708 21-457): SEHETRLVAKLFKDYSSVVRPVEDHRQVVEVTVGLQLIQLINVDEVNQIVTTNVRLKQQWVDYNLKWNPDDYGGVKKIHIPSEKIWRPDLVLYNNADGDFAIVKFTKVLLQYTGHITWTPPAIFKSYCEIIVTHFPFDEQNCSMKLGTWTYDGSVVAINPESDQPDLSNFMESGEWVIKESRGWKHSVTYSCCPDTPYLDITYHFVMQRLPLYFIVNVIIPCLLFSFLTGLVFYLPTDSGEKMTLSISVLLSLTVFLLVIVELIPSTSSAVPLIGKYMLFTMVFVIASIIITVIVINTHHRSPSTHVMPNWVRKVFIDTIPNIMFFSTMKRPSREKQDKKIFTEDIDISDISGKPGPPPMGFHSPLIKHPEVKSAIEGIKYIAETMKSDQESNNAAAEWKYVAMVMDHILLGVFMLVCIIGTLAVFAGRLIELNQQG
Method description: SPR binding affinity (RU) of optimized 5mer/6mer/7mer peptides, Examples 6-7
Settings: SPR, Resonance Units; peptides tested at 10 μM; 6mer-2 Top sequence (Table 12)
Binding affinity reference

>  <Substance>
6mer-2-319 (RSRQRK)

>  <Unit tag>
Ru

>  <Binding affinity>
137

$$$$
>  <Substance>
6mer-2-342 (KRYRKK)

>  <Unit tag>
Ru

>  <Binding affinity>
145

$$$$
>  <Substance>
6mer-2-350 (RGQTRK)

>  <Unit tag>
Ru

>  <Binding affinity>
148

$$$$
>  <Substance>
6mer-2-249 (RGLRKR)

>  <Unit tag>
Ru

>  <Binding affinity>
136

$$$$
>  <Substance>
6mer-2-344 (KGIRRK)

>  <Unit tag>
Ru

>  <Binding affinity>
148

$$$$
>  <Substance>
6mer-2-272 (KWRSRK)

>  <Unit tag>
Ru

>  <Binding affinity>
154

$$$$
>  <Substance>
6mer-2-227 (KLQRRK)

>  <Unit tag>
Ru

>  <Binding affinity>
147

$$$$
>  <Substance>
6mer-2-338 (RSVQKR)

>  <Unit tag>
Ru

>  <Binding affinity>
145

$$$$
>  <Substance>
6mer-2-224 (RLFLKR)

>  <Unit tag>
Ru

>  <Binding affinity>
148

$$$$
>  <Substance>
6mer-2-301 (RQVRKR)

>  <Unit tag>
Ru

>  <Binding affinity>
122

$$$$
>  <Substance>
6mer-2-398 (RQQRRR)

>  <Unit tag>
Ru

>  <Binding affinity>
141

$$$$
>  <Substance>
6mer-2-348 (KSQLRR)

>  <Unit tag>
Ru

>  <Binding affinity>
153

$$$$
>  <Substance>
6mer-2-290 (RQLYRK)

>  <Unit tag>
Ru

>  <Binding affinity>
135

$$$$
>  <Substance>
6mer-2-217 (KLFQKK)

>  <Unit tag>
Ru

>  <Binding affinity>
135

$$$$
>  <Substance>
6mer-2-286 (KRRYKK)

>  <Unit tag>
Ru

>  <Binding affinity>
139

$$$$
>  <Substance>
6mer-2-242 (KSQRRR)

>  <Unit tag>
Ru

>  <Binding affinity>
135

$$$$
>  <Substance>
6mer-2-318 (RGIQKK)

>  <Unit tag>
Ru

>  <Binding affinity>
145

$$$$
>  <Substance>
6mer-2-316 (KGIRRR)

>  <Unit tag>
Ru

>  <Binding affinity>
139

$$$$
>  <Substance>
6mer-2-215 (RLYYRR)

>  <Unit tag>
Ru

>  <Binding affinity>
123

$$$$

* * *

Below: a set of entries, each annotated with reported Binding affinity.
Assayed system: acetylcholine receptor (Homo sapiens, UniProt P02708)
Method description: SPR binding affinity (RU) of optimized 5mer/6mer/7mer peptides, Examples 6-7
Settings: SPR, peptides at 10 μM; 6mer-2 Bottom sequence

>  <Substance>
6mer-2-1056 (RNDERK)

>  <Binding affinity [Ru]>
22

$$$$
>  <Substance>
6mer-2-1004 (RDTHKR)

>  <Binding affinity [Ru]>
38

$$$$
>  <Substance>
6mer-2-1140 (KMNKKR)

>  <Binding affinity [Ru]>
29

$$$$
>  <Substance>
6mer-2-1182 (RHNDKR)

>  <Binding affinity [Ru]>
30

$$$$
>  <Substance>
6mer-2-1137 (RTDFKR)

>  <Binding affinity [Ru]>
22

$$$$
>  <Substance>
6mer-2-1139 (KAKAKK)

>  <Binding affinity [Ru]>
39

$$$$
>  <Substance>
6mer-2-1120 (RDMMKK)

>  <Binding affinity [Ru]>
28

$$$$
>  <Substance>
6mer-2-1040 (KYAWRK)

>  <Binding affinity [Ru]>
36

$$$$
>  <Substance>
6mer-2-1193 (REKIRR)

>  <Binding affinity [Ru]>
43

$$$$
>  <Substance>
6mer-2-1050 (KPPPRK)

>  <Binding affinity [Ru]>
26

$$$$
>  <Substance>
6mer-2-1162 (KMSERR)

>  <Binding affinity [Ru]>
34

$$$$
>  <Substance>
6mer-2-1129 (RITGKR)

>  <Binding affinity [Ru]>
42

$$$$
>  <Substance>
6mer-2-1178 (KTTVRK)

>  <Binding affinity [Ru]>
30

$$$$
>  <Substance>
6mer-2-1026 (KENHRK)

>  <Binding affinity [Ru]>
33

$$$$
>  <Substance>
6mer-2-1141 (KCTGKR)

>  <Binding affinity [Ru]>
32

$$$$
>  <Substance>
6mer-2-1188 (RAPARR)

>  <Binding affinity [Ru]>
22

$$$$

* * *

Assayed system: acetylcholine receptor (Homo sapiens, UniProt P02708)
Method description: SPR binding affinity (RU) of optimized 5mer/6mer/7mer peptides, Examples 6-7
Settings: SPR, peptides tested at 10 μM; 6mer-1 Bottom sequence (Table 11)
Protocol: Based on the frequencies of occurrence of the top 7 amino acids from Table 7 in Example 5, 600 peptides comprising these amino acids (top combinations) and those comprising the 13 less frequently occurring amino acids (bottom combinations) were synthesized for each series of 5mer, 6mer-1, and 6mer-2. The binding affinity of each sequence for the acetylcholine receptor was measured using Surface Plasmon Resonance (SPR) analysis method. The peptides were tested at a concentration of 10 μM. […]
Overview of recorded Binding affinity for various substances
Assay metric: Binding affinity (Ru)

>  <Substance>
6mer-1-859 (RKCMVK)

>  <Assayed system>
acetylcholine receptor (Homo sapiens, UniProt P02708)

>  <Quantitative result>
27

$$$$
>  <Substance>
6mer-1-863 (RRCTER)

>  <Assayed system>
acetylcholine receptor (Homo sapiens, UniProt P02708)

>  <Quantitative result>
27

$$$$
>  <Substance>
6mer-1-997 (KKPTFR)

>  <Assayed system>
acetylcholine receptor (Homo sapiens, UniProt P02708)

>  <Quantitative result>
35

$$$$
>  <Substance>
6mer-1-958 (KRYAGR)

>  <Assayed system>
acetylcholine receptor (Homo sapiens, UniProt P02708)

>  <Quantitative result>
43

$$$$
>  <Substance>
6mer-1-965 (KRIWDK)

>  <Assayed system>
acetylcholine receptor (Homo sapiens, UniProt P02708)

>  <Quantitative result>
36

$$$$
>  <Substance>
6mer-1-808 (RRFEKK)

>  <Assayed system>
acetylcholine receptor (Homo sapiens, UniProt P02708)

>  <Quantitative result>
24

$$$$
>  <Substance>
6mer-1-937 (RKPTNR)

>  <Assayed system>
acetylcholine receptor (Homo sapiens, UniProt P02708)

>  <Quantitative result>
34

$$$$
>  <Substance>
6mer-1-921 (RKFWHR)

>  <Assayed system>
acetylcholine receptor (Homo sapiens, UniProt P02708)

>  <Quantitative result>
36

$$$$
>  <Substance>
6mer-1-908 (KKFMVR)

>  <Assayed system>
acetylcholine receptor (Homo sapiens, UniProt P02708)

>  <Quantitative result>
37

$$$$
>  <Substance>
6mer-1-835 (KRTADK)

>  <Assayed system>
acetylcholine receptor (Homo sapiens, UniProt P02708)

>  <Quantitative result>
26

$$$$
>  <Substance>
6mer-1-929 (RRCDHK)

>  <Assayed system>
acetylcholine receptor (Homo sapiens, UniProt P02708)

>  <Quantitative result>
25

$$$$
>  <Substance>
6mer-1-902 (RRDKMK)

>  <Assayed system>
acetylcholine receptor (Homo sapiens, UniProt P02708)

>  <Quantitative result>
39

$$$$
>  <Substance>
6mer-1-890 (RRTSNK)

>  <Assayed system>
acetylcholine receptor (Homo sapiens, UniProt P02708)

>  <Quantitative result>
18

$$$$
>  <Substance>
6mer-1-883 (KKIDDK)

>  <Assayed system>
acetylcholine receptor (Homo sapiens, UniProt P02708)

>  <Quantitative result>
21

$$$$
>  <Substance>
6mer-1-806 (RKKTIR)

>  <Assayed system>
acetylcholine receptor (Homo sapiens, UniProt P02708)

>  <Quantitative result>
12

$$$$
>  <Substance>
6mer-1-871 (KREWDR)

>  <Assayed system>
acetylcholine receptor (Homo sapiens, UniProt P02708)

>  <Quantitative result>
30

$$$$
